O.D. 490/630 at 0.25 µg/mL for assorted binders
target: T1, full-length recombinant human PAD4 (human, UniProt Q9UM07 1-663); assay: ELISA, immobilized human PAD4
T1 construct: Full-length recombinant; also called peptidylarginine deiminase 4
T1 sequence (Q9UM07 whole entry): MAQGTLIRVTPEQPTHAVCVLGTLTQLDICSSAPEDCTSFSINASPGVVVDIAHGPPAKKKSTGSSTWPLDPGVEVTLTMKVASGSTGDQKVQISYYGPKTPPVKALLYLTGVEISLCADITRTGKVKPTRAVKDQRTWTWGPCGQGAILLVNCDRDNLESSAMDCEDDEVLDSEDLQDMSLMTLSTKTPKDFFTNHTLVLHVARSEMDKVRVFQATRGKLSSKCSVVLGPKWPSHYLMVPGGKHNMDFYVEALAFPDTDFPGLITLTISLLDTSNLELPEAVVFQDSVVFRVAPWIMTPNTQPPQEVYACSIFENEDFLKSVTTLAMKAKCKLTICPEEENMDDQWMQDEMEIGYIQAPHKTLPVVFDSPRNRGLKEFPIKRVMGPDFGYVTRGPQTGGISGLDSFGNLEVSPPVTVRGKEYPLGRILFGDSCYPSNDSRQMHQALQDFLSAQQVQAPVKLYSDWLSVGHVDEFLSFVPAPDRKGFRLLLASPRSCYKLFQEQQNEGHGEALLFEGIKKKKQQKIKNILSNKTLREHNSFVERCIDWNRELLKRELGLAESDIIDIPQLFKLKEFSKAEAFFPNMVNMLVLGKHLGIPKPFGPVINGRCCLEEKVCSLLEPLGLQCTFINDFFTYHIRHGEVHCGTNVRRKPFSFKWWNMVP
Simply state the number, no unit and no words.

humanized anti-PAD4 antibody derived from G8, VH H4.32 / VL L4.17 (antibody, IgG1, V domains shown, IgG1 kappa; also called G8 H4.32/L4.17) VH: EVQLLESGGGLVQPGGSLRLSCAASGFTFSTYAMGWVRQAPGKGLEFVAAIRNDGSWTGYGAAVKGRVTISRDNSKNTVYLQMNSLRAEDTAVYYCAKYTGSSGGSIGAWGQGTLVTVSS VL: SYELTQPPSVSVSPGQTARITCSGGNRNYYYGWYQQKPGQAPVTVIYANDKRPSGIPERFSGSTSGNTTTLTISGVQAEDEADYYCGTADTGKYVFGGGTKLTVLG | 1.83
humanized anti-PAD4 antibody derived from H7, VH H4.32 / VL L4.00 (antibody, IgG1, V domains shown, IgG1 kappa; also called H7 H4.32/L4.00) VH: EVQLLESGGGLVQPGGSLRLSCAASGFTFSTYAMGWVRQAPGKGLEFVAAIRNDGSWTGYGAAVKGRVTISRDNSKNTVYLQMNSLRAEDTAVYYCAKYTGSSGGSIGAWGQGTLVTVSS VL: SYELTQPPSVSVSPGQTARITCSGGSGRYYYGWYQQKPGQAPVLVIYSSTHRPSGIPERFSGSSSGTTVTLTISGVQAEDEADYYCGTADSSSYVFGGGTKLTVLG | 1.85
humanized anti-PAD4 antibody derived from G8, VH H4.15 / VL L4.29 (antibody, human IgG1, kappa, V domains shown, IgG1 kappa; also called G8 H4.15/L4.29) VH: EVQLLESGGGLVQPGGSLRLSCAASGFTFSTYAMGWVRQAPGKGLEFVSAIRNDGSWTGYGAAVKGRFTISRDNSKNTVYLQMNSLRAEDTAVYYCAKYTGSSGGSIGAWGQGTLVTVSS VL: SYELTQPPSVSVSPGQTARITCSGGNRNYYYGWYQQKPGQAPVTVIYANDKRPSGIPERFSGSNSGSTTTLTISGVQAEDEADYYCGTADTGKYVFGGGTKLTVLG | 1.86
humanized anti-PAD4 antibody derived from H7, VH H4.15 / VL L4.15 (antibody, IgG1, V domains shown, IgG1 kappa; also called H7 H4.15/L4.15) VH: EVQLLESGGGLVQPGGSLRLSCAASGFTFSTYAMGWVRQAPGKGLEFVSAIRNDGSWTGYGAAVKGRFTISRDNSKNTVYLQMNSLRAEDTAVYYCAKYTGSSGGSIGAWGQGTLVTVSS VL: SYELTQPPSVSVSPGQTARITCSGGSGRYYYGWYQQKPGQAPVTVIYSSTHRPSGIPERFSGSNSGNTTTLTISGVQAEDEADYYCGTADSSSYVFGGGTKLTVLG | 1.84
humanized anti-PAD4 antibody derived from G8, VH H4.15 / VL L4.00 (antibody, human IgG1, kappa, V domains shown, IgG1 kappa; also called G8 H4.15/L4.00) VH: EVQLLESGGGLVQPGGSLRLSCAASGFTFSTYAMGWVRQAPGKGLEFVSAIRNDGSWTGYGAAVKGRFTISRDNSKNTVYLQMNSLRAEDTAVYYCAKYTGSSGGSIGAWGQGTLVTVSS VL: SYELTQPPSVSVSPGQTARITCSGGNRNYYYGWYQQKPGQAPVLVIYANDKRPSGIPERFSGSSSGTTVTLTISGVQAEDEADYYCGTADTGKYVFGGGTKLTVLG | 1.87

Next up:
Ask: Recorded O.D. 490/630 at 0.25 µg/mL for humanized anti-PAD4 antibody derived from G8, VH H4.15 / VL L4.06 (antibody, human IgG1, kappa, V domains shown, IgG1 kappa; also called G8 H4.15/L4.06) VH: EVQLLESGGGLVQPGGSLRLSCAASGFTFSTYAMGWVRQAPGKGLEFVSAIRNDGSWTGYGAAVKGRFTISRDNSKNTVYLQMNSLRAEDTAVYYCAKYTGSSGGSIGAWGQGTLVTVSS VL: SYELTQPPSVSVSPGQTARITCSGGNRNYYYGWYQQKPGQAPVTVIYANDKRPSGIPERFSGSYSGNTTTLTISGVQAEDEADYYCGTADTGKYVFGGGTKLTVLG , please?
Result: 1.87

Value source: patent US20180044434A1
